// Emax lookup, one value per entry
Molecular target: M4 mAChR (Homo sapiens)
Construct: expressed in transfected cells; host or cells: CHO-K1
Sequence (P08173 1-479): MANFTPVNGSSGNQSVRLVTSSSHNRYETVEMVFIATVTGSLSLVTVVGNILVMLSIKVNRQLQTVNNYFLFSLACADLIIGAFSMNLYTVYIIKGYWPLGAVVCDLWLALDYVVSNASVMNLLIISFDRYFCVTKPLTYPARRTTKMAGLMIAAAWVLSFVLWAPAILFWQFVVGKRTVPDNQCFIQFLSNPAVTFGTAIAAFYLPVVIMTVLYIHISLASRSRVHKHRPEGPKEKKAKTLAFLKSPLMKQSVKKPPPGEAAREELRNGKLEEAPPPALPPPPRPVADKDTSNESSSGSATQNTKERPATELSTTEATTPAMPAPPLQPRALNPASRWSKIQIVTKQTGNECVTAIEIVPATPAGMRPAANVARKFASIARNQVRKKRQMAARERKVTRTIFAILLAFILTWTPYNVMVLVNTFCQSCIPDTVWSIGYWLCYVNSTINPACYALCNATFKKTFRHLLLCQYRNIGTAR
Assay: cAMP TR-FRET assay with forskolin, M4-overexpressing CHO-K1 cells
Assay type: cell-based
Conditions: cAMP assay
reported-endpoint: Emax

In [3]: df
Out[3]:
                            compound_smiles      result
0  CCOC(=O)N1CC2(CC[C@@H](N3CCN(c4cc(F)cnc4-c4cc(O)ncc4F)CC3)C2)C1  80 to 100%
1  CCOC(=O)N1CC2(CC[C@@H](N3CCN(c4cc(F)cnc4C4=CCN(C)CC4)CC3)C2)C1  80 to 100%
2  CCOC(=O)N1CC2(CC[C@@H](N3CCN(c4cc(F)cnc4-c4c[nH]c(=O)c(F)c4)CC3)C2)C1  80 to 100%
3  CCOC(=O)N1CC2(CC[C@@H](N3CCN(c4cccnc4C4CCOCC4)CC3)C2)C1  80 to 100%

---

// Emax lookup, one value per entry
biological target: M4 mAChR (Homo sapiens, UniProt P08173); construct: expressed in transfected cells; host or cells: CHO-K1; assay: cAMP TR-FRET assay with forskolin, M4-overexpressing CHO-K1 cells; assay type: cell-based; conditions: cAMP assay
reported-endpoint: Emax

>>> df
                            compound_smiles       result
0  CCOC(=O)N1CC2(CC[C@@H](N3CCN(c4cc(F)cnc4-c4cccn(C)c4=O)CC3)C2)C1  19 to 49.9%
1  CCOC(=O)N1CC2(CC[C@@H](N3CCN(c4cc(F)cnc4-n4cnc(C)c4)CC3)C2)C1   80 to 100%
2  CCOC(=O)N1CC2(CC[C@@H](N3CCN(c4cc(C)cnc4-c4cnccn4)CC3)C2)C1   80 to 100%
3  CCOC(=O)N1CC2(CC[C@@H](N3CCN(c4cc(F)cnc4-c4ccc(C#N)cc4)CC3)C2)C1   80 to 100%
4  CCOC(=O)N1CC2(CC[C@@H](N3CCN(c4cc(F)cnc4-c4nccs4)CC3)C2)C1   80 to 100%
5  CCOC(=O)N1CC2(CC[C@@H](N3CCN(c4cc(F)cnc4-c4ccns4)CC3)C2)C1   80 to 100%

The measured values listed here are drawn from patent US20260098026A1.
